Test system: MDA-MB-231
Experiment: Antiproliferative activity against human MDA-MB-231 cells assessed as inhibition of cell growth incubated for 72 hrs by Celltiter Glo assay
Type: functional, cell-based
Conditions: MDA-MB-231, 72 h
measure: pIC50
Give bare numbers, as −log10 of the molar value.

input.smiles | pIC50
OC[C@H]1O[C@@H](Cc2cc(-c3c[nH]c4ccccc34)on2)[C@H](O)[C@@H](O)[C@@H]1O | 4.45

Moving on to the next compound.
Given the compound CCOC(=O)[C@H]1Cc2c([nH]c3ccccc23)CN1Cc1cn(CCCCCOc2ccc(C(=O)/C=C/c3cc(OC)c(OC)c(OC)c3)cc2)nn1 , what is its reported pIC50?
4.65

From: ChEMBL document CHEMBL5252593
